one-nucleolus phenotype percent effect values by entry
system: MCF10A; test: one-nucleolus phenotype percent effect (relative to siNT 0% and siNOL11 100%); higher = more cells with one nucleolus (ribosome biogenesis inhibition); conditions: 20 nM; 72 h
State just the number; it will be interpreted in %.

Below, 2 sequences whose answers are already recorded.
sequence data	target or system	one-nucleolus phenotype percent effect (%)
UGAUCAGGCAAAAUUGCAGACU [hsa-miR-4772-5p]	MCF10A	9.01
AAUCAUACACGGUUGACCUAUU [hsa-miR-154-3p]	MCF10A	-0.992

**Query** Please tell me the measured one-nucleolus phenotype percent effect for UGCCCCAUCUGUGCCCUGGGUAGGA [hsa-miR-3189-5p] ; system: MCF10A.
**Result** 1.04

**Query** Please tell me the measured one-nucleolus phenotype percent effect for AUUCUCUCUGGAUCCCAUGGAU [hsa-miR-4768-5p] ; system: MCF10A.
**Result** -12.2

**Query** Please tell me the measured one-nucleolus phenotype percent effect for UGGAUGUGGAAGGAGUUAUCU [hsa-miR-4764-5p] ; system: MCF10A.
**Result** -0.862

**Query** Please tell me the measured one-nucleolus phenotype percent effect for UUGAAUUCUUGGCCUUAAGUGAU [hsa-miR-4452] ; system: MCF10A.
**Result** -19.4

The reported measurements were obtained from the supplement of paper PMC10899765.
